- condition.notes: in ethanol, 303.15 K
quantity.measured: solubility (mole fraction)

Looking up OC(CN1CCN(CC(O)(Cn2cncn2)c2ccc(F)cc2F)CC1)(Cn1cncn1)c1ccc(F)cc1F (stereo unspecified) , I found its solubility (mole fraction) recorded as 0.000401

###

- condition.notes: in n-octanol, 293.15 K
quantity.measured: solubility (mole fraction)
// no unit string in output, number only

Entry OC(CN1CCN(CC(O)(Cn2cncn2)c2ccc(F)cc2F)CC1)(Cn1cncn1)c1ccc(F)cc1F (stereo unspecified) , solubility (mole fraction) reported as 6.23e-05

###

- condition.notes: in ethanol, 308.15 K
quantity.measured: solubility (mole fraction)
When you answer, write just the number.

Query OC(CN1CCN(CC(O)(Cn2cncn2)c2ccc(F)cc2F)CC1)(Cn1cncn1)c1ccc(F)cc1F (stereo unspecified) yields solubility (mole fraction) of 0.000463
